Target: T1, human Myl9-His (human, UniProt P24844 2-172, limits assumed)
T1 construct: Made in E. coli; the GST tag was cleaved with PreScission Protease
T1 sequence: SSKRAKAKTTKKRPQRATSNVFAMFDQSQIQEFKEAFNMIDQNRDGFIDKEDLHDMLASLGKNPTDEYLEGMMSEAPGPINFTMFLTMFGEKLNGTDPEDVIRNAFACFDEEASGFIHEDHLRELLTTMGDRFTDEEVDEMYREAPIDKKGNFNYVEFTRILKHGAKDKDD
Test: ELISA, human Myl9-His coated, anti-human IgG-HRP
recorded.endpoint: binding result

Humanized antibody No. 117 (antibody, human IgG2, kappa, V domains shown, human IgG2 (V234A, G237A, C-terminal Lys deleted) / kappa; Expi293F, Protein A purified; also called HK2-6/L1-5) VH: QVQLVQSGAEVKKPGASVKVSCKASGYTFTDYEMHWVRQAPGQGLEWMGAIDPETGGTAYNQKFKGRATMTADTSTSTAYMELSSLRSEDTAVYYCADYDYDGFAYWGQGTLVTVSS VL: DIVMTQSPLSLSITPGEQASISCRSSQSLVHSNGNTYLHWYLQKPGQSPQLLISKVSNRFSGVPDRFSGSGSGTDFTLKISRVEAEDVGVYFCSQNTHVPPLTFGGGTKVEIKR	binds
Humanized antibody No. 116 (antibody, human IgG2, kappa, V domains shown, human IgG2 (V234A, G237A, C-terminal Lys deleted) / kappa; Expi293F, Protein A purified; also called HK2-5/L1-5) VH: QVQLVQSGAEVKKPGASVKVSCKASGYTFTDYEMHWVRQAPGQGLEWMGAIDPETGGTAYNQKFKGRVTMTADTSTSTAYMELSSLRSEDTAVYYCADYDYDGFAYWGQGTLVTVSS VL: DIVMTQSPLSLSITPGEQASISCRSSQSLVHSNGNTYLHWYLQKPGQSPQLLISKVSNRFSGVPDRFSGSGSGTDFTLKISRVEAEDVGVYFCSQNTHVPPLTFGGGTKVEIKR	binds
Humanized antibody No. 126 (antibody, human IgG2, kappa, V domains shown, human IgG2 (V234A, G237A, C-terminal Lys deleted) / kappa; Expi293F, Protein A purified; also called HK1-A/L4-2) VH: QVQLVQSGAEVKKPGSSVKVSCKASGYTFSDYEMHWVRQAPGQGLEWIGAIDPETGGTAYNQKFKGRATITADKSTSTAYMELRSLRSEDTAVYYCTDYDYDGFAYWGQGTLVTVSS VL: DIVMTQTPLSSPVTLGQPASISCRSSQSLVHSNGNTYLHWYQQRPGQPPRLLISKVSNRFSGVPDRFSGSGAGTDFTLKISRVEAEDVGVYFCSQNTHVPPLTFGGGTKVEIKR	binds

Cited source: patent US20190002588A1
